target-under-test: PD brain-derived a-syn aggregates (Homo sapiens, UniProt P37840)
Construct: from tissue; host or cells: human PD donor brain, sarkosyl-insoluble 100,000 x g pellet
test-summary: Micro-radiobinding competition assay against Example-1 [^3H-1] (Table 8)
Assay type: binding
run-conditions: 1 μM non-radiolabelled example compound vs Example-1 [^3H-1] ligand; human PD brain-derived a-syn aggregates
observed-property: Competition at 1 μM (%)

compound="O=C1c2cn(-c3ccc(N4CCC[C@H](F)C4)nc3)nc2CN1c1cccnc1 [Example 43]" target_under_test="PD brain-derived a-syn aggregates (Homo sapiens, UniProt P37840)" observed_property="Competition at 1 μM (%)" u=% recorded_number=88
compound="Cn1ccc(-n2cc3c(n2)CN(c2cccc(F)n2)C3=O)n1 [Example 145]" target_under_test="PD brain-derived a-syn aggregates (Homo sapiens, UniProt P37840)" observed_property="Competition at 1 μM (%)" u=% recorded_number=76
compound="COc1ccc(N2Cc3nn(-c4ccc(N5CC[C@@H](F)C5)nc4)cc3C2=O)cn1 [Example 8]" target_under_test="PD brain-derived a-syn aggregates (Homo sapiens, UniProt P37840)" observed_property="Competition at 1 μM (%)" u=% recorded_number=91
compound="Cc1cc(N2Cc3nn(-c4ccc(N5CC[C@@H](F)C5)nc4)cc3C2=O)ccn1 [Example 102]" target_under_test="PD brain-derived a-syn aggregates (Homo sapiens, UniProt P37840)" observed_property="Competition at 1 μM (%)" u=% recorded_number=68
compound="COc1ccnc(N2Cc3nn(-c4ccc(N5CC[C@H](F)C5)nc4)cc3C2=O)c1 [Example 77]" target_under_test="PD brain-derived a-syn aggregates (Homo sapiens, UniProt P37840)" observed_property="Competition at 1 μM (%)" u=% recorded_number=94
compound="N#Cc1cc(N2Cc3nn(-c4ccc(N5CC[C@H](F)C5)nc4)cc3C2=O)ccc1N [Example 22]" target_under_test="PD brain-derived a-syn aggregates (Homo sapiens, UniProt P37840)" observed_property="Competition at 1 μM (%)" u=% recorded_number=72
compound="O=C1c2cn(-c3ccc(N4CCCC4)nc3)nc2CN1c1cncc(F)n1 [Example 139]" target_under_test="PD brain-derived a-syn aggregates (Homo sapiens, UniProt P37840)" observed_property="Competition at 1 μM (%)" u=% recorded_number=77
compound="O=C1c2cn(-c3ccc(N4CC[C@@H](F)C4)nc3)nc2CN1c1cccnn1 [Example 152]" target_under_test="PD brain-derived a-syn aggregates (Homo sapiens, UniProt P37840)" observed_property="Competition at 1 μM (%)" u=% recorded_number=86
compound="O=C1c2cn(-c3ccc(NC4CC(F)C4)nc3)nc2CN1c1ccccn1 (stereo not drawn) [Example 89]" target_under_test="PD brain-derived a-syn aggregates (Homo sapiens, UniProt P37840)" observed_property="Competition at 1 μM (%)" u=% recorded_number=75
compound="O=C1c2cn(-c3ccc(N4CCCC4)nc3)nc2CN1c1nccnc1F [Example 42]" target_under_test="PD brain-derived a-syn aggregates (Homo sapiens, UniProt P37840)" observed_property="Competition at 1 μM (%)" u=% recorded_number=89
compound="O=C1c2cn(-c3ccc(N4CC[C@H](F)C4)cn3)nc2CN1c1cccnc1 [Example 72]" target_under_test="PD brain-derived a-syn aggregates (Homo sapiens, UniProt P37840)" observed_property="Competition at 1 μM (%)" u=% recorded_number=79
compound="Cc1c2c(nn1-c1ccc(N3CC[C@@H](F)C3)nc1)CN(c1ccncc1)C2=O [Example 94]" target_under_test="PD brain-derived a-syn aggregates (Homo sapiens, UniProt P37840)" observed_property="Competition at 1 μM (%)" u=% recorded_number=70
compound="COc1ccc(-n2cc3c(n2)CN(c2cncc(F)n2)C3=O)cn1 [Example 147]" target_under_test="PD brain-derived a-syn aggregates (Homo sapiens, UniProt P37840)" observed_property="Competition at 1 μM (%)" u=% recorded_number=86
compound="CC(C)Oc1ccc(-n2cc3c(n2)CN(c2cccc(F)n2)C3=O)cn1 [Example 160]" target_under_test="PD brain-derived a-syn aggregates (Homo sapiens, UniProt P37840)" observed_property="Competition at 1 μM (%)" u=% recorded_number=73
compound="Cc1cccc(N2Cc3nn(-c4ccc(N5CC[C@@H](F)C5)nc4)cc3C2=O)c1 [Example 61]" target_under_test="PD brain-derived a-syn aggregates (Homo sapiens, UniProt P37840)" observed_property="Competition at 1 μM (%)" u=% recorded_number=80
